Test system: CD2F1 mice, L1210 leukemia ip, survival T/C
Test: NCI In Vivo Anticancer Drug Screen. Data for tumor model L1210 Leukemia (intraperitoneal) in CD2F1 (CDF1) mice
Settings: endpoint: mean survival time; dose: 200.0 mg/kg/injection; schedule: Q04DX002 (ip); vehicle: saline with Tween-80; higher = longer survival
Experimental: The antitumor activity of compounds was measured in mice bearing transplantable tumors. Survival or tumor size were measured and the results are expressed as the measurement made in the treated group (T) divided by the measurement made in the vehicle treated control group (C). The tumor model used in this assay is L1210 Leukemia (intraperitoneal) in CD2F1 (CDF1) mice
Inconclusive results and toxic doses are left out.
observed.property: T/C

COc1cc2c(cc1OC)C1=NN(c3ccccc3)C(=O)C1CC2 (stereo unspecified)    95 % of control
O=C(O)c1c(Cl)c(Cl)c(Cl)c(Cl)c1C(=O)O    101 % of control
O=N[O-].O=N[O-].[Co].[NH-]CC[NH-].[NH-]CC[NH-]    96 % of control
Cc1c(C=NC(=O)c2ccccc2)c2ccccc2n1C    108 % of control
CN(C)c1ccc(/C=C2N=C(/C=C\c3ccccc3)OC\2=O)cc1    94 % of control

Request: Determine its reported T/C: CCOC(=O)CC1(c2ccccc2)OC(=O)c2ccccc21 (stereo unspecified)
Result: 87 % of control

Request: Determine its reported T/C: O=c1c2cccc3cccc(c4n1NC=c1ccccc1=4)c32
Result: 96 % of control

Request: Determine its reported T/C: COc1ccccc1NC(=O)Oc1c(C)cccc1C
Result: 100 % of control

The values you see were collected from PubChem BioAssay AID256.
